- methodDescription: In vitro microsomal metabolic stability, CD-1 mouse liver microsomes
- Assay type: in vitro ADME
- experimentalContext: Mouse liver microsomes, without NADPH regenerating system, 60 min
Give Remaining (T = NCF60 min) for every item shown.
Lab note: write values as number then unit, every time.

Below, 6 molecules whose answers are already recorded.
- molecule: "CCOc1cccc(NC2C[C@@H]3CC[C@@H](C)[C@@](O)(O3)C(=O)C(=O)N3CCCCC3C(=O)O[C@H]([C@H](C)C[C@@H]3CC[C@@H](O)[C@H](OC)C3)CC[C@H](C)/C=C(\\C)[C@@H](O)[C@@H](OC)C(=O)[C@H](C)C[C@H](C)/C=C/C=C/C=C/2C)c1 (stereo partly drawn)"
  Remaining (T = NCF60 min): "112%"
- molecule: "COCCN(c1ccccc1)C1C[C@@H]2CC[C@@H](C)[C@@](O)(O2)C(=O)C(=O)N2CCCC[C@H]2C(=O)OC([C@H](C)CC2CC[C@@H](O)C(OC)C2)CC[C@H](C)/C=C(\\C)C(O)C(OC)C(=O)[C@H](C)C[C@H](C)/C=C/C=C/C=C/1C (stereo partly drawn)"
  Remaining (T = NCF60 min): "99.6%"
- molecule: "COc1cccc(NC2C[C@@H]3CC[C@@H](C)[C@@](O)(O3)C(=O)C(=O)N3CCCCC3C(=O)O[C@H]([C@H](C)C[C@@H]3CC[C@@H](O)[C@H](OC)C3)CC[C@H](C)/C=C(\\C)[C@@H](O)[C@@H](OC)C(=O)[C@H](C)C[C@H](C)/C=C/C=C/C=C/2C)c1 (stereo partly drawn)"
  Remaining (T = NCF60 min): "96%"
- molecule: "CO[C@@H]1C[C@H](C[C@@H](C)[C@@H]2CC[C@H](C)/C=C(\\C)[C@@H](O)[C@@H](OC)C(=O)[C@H](C)C[C@H](C)/C=C/C=C/C=C(\\C)C(Nc3cccc(C)c3)C[C@@H]3CC[C@@H](C)[C@@](O)(O3)C(=O)C(=O)N3CCCCC3C(=O)O2)CC[C@H]1O (stereo partly drawn)"
  Remaining (T = NCF60 min): "112%"
- molecule: "CO[C@@H]1C[C@H](C[C@@H](C)[C@@H]2CC[C@H](C)/C=C(\\C)[C@@H](O)[C@@H](OC)C(=O)[C@H](C)C[C@H](C)/C=C/C=C/C=C(\\C)C(Nc3ccc(Cl)cc3)C[C@@H]3CC[C@@H](C)[C@@](O)(O3)C(=O)C(=O)N3CCCCC3C(=O)O2)CC[C@H]1O (stereo partly drawn)"
  Remaining (T = NCF60 min): "150%"
- molecule: "CO[C@@H]1C[C@H](C[C@@H](C)[C@@H]2CC[C@H](C)/C=C(\\C)[C@@H](O)[C@@H](OC)C(=O)[C@H](C)C[C@H](C)/C=C/C=C/C=C(\\C)C(Nc3ccc(C)cc3)C[C@@H]3CC[C@@H](C)[C@@](O)(O3)C(=O)C(=O)N3CCCCC3C(=O)O2)CC[C@H]1O (stereo partly drawn)"
  Remaining (T = NCF60 min): "139%"

// input: 3 molecules below; output: Remaining (T = NCF60 min) for each
1. CO[C@@H]1CC(C[C@@H](C)[C@@H]2CC[C@H](C)/C=C(\C)[C@@H](O)[C@@H](OC)C(=O)[C@H](C)C[C@H](C)/C=C/C=C/C=C(\C)C(Nc3cncc(C)n3)CC3CC[C@@H](C)[C@@](O)(O3)C(=O)C(=O)N3CCCC[C@H]3C(=O)O2)CC[C@H]1O (stereo partly drawn)
2. CO[C@@H]1C[C@H](C[C@@H](C)[C@@H]2CC[C@H](C)/C=C(\C)[C@@H](O)[C@@H](OC)C(=O)[C@H](C)C[C@H](C)/C=C/C=C/C=C(\C)C(NS(=O)(=O)c3cnoc3C)C[C@@H]3CC[C@@H](C)[C@@](O)(O3)C(=O)C(=O)N3CCCCC3C(=O)O2)CC[C@H]1O (stereo partly drawn)
3. CO[C@@H]1C[C@H](C[C@@H](C)[C@@H]2CC[C@H](C)/C=C(\C)[C@@H](O)[C@@H](OC)C(=O)[C@H](C)C[C@H](C)/C=C/C=C/C=C(\C)C(Nc3ccsc3)C[C@@H]3CC[C@@H](C)[C@@](O)(O3)C(=O)C(=O)N3CCCCC3C(=O)O2)CC[C@H]1O (stereo partly drawn)

106%
85%
75%
